reportedEndpoint: melting point

Here is how some compounds turned out for melting point.
INSERT INTO results (compound, reportedendpoint, resultvalue) VALUES
  ('CC(c1oc2ccccc2c(=O)c1-c1cccc(F)c1)n1nc(C#CCO)c2c(N)ncnc21 (centres undefined)', 'melting point', '171 to 173 °C'),
  ('COc1ccc(CN(C)CC(O)COc2ccc(NC(=O)c3cccc4c(=O)c5cccc(OC)c5[nH]c34)cc2)cc1OC (centres undefined)', 'melting point', '175 °C'),
  ('CCc1cc(C)nc2c(C)ccc([N+](=O)[O-])c12', 'melting point', '89 to 90 °C'),
  ('N#Cc1ccc2cc(O)ccc2c1', 'melting point', '160 to 164 °C'),
  ('COC(=O)CCC(=NO)C(C)(C)NCCCNC(C)(C)C(Cn1ccnc1[N+](=O)[O-])=NO', 'melting point', '137 to 139 °C');

# compound COc1ccccc1OCC1SCCN1C(=S)CC(=O)c1cc(OC)c(OC)c(OC)c1 (centres undefined) ; its melting point = 110 to 112 °C

# compound COc1ccccc1CC(=NCc1cccs1)N1C[C@@H]2C(=O)CCC(c3ccccc3)(c3ccccc3)[C@@H]2C1 ; its melting point = 88 °C

# compound Fc1cccc(Cl)c1-c1c(Cl)cc(-c2ccccn2)nc1Cl ; its melting point = 45 °C

# compound CCCCC1=C(C#N)N(O)CS1 ; its melting point = 118 to 120 °C

# compound CNNc1nncc(-c2ccccc2)n1 ; its melting point = 112 to 113 °C

# compound NS(=O)(=O)c1cccc(C2(O)CCCC2)c1 ; its melting point = 155 °C
